Cited source for all entries: ChEMBL document CHEMBL3407452

Tested on: Hepatitis C virus
Test: Antiviral activity against HCV genotype 1b I389luc-ubi-neo/NS3-3'/5.1 replicons infected in human Huh-9-13 HCV subgenomic replicon-containing cells assessed as reduction in virus replication after 3 days by RT-qPCR method
Type: functional, Hepacivirus hominis
Conditions: 72 h
Value kind: pEC50
Reminder that pEC50 means the negative base-10 logarithm of the concentration expressed in mol/L.

stdin: What does the data say about its pEC50? Entry: O=C(NCCCCCCCCCCCCNC(=O)c1ccc(O)c(O)c1O)c1ccc(O)c(O)c1O
stdout: 5.08

* * *

Assay: Cytotoxicity against human Huh-9-13 cells after 72 hrs by MTS assay
Format: cell-based
Value kind: CC50 at 72 h

stdin: Query: CC50 at 72 h; subject: O=C(NCCCCCCCCCCCCNC(=O)c1ccc(O)c(O)c1O)c1ccc(O)c(O)c1O
stdout: > 100 µM

* * *

Here, each record is paired with measured EC90 data.
System: Hepatitis C virus
Test: Antiviral activity against HCV genotype 1b I389luc-ubi-neo/NS3-3'/5.1 replicons infected in human Huh5-2 HCV subgenomic replicon-containing cells assessed as reduction in virus replication after 3 days by luciferase reporter gene assay
Assay type: functional, Hepacivirus hominis
Settings: Hepatitis C virus, genotype 1b, Huh-5-2, 72 h

Consider the following illustrative entries.
Molecule	EC90
O=C(NCCN(CCNC(=O)c1ccc(O)c(O)c1O)CCNC(=O)c1ccc(O)c(O)c1O)c1ccc(O)c(O)c1O	> 5.5 µM
O=C(NCCCCCCCCCCCCNC(=O)c1cc(O)c(O)c(O)c1)c1cc(O)c(O)c(O)c1	> 100 µM
CCCCCCCCCCCCOC(=O)c1cc(O)c(O)c(O)c1 [DODECYL GALLATE]	1.8 µM
O=C(NCCN(CCNC(=O)c1cc(O)c(O)c(O)c1)CCNC(=O)c1cc(O)c(O)c(O)c1)c1cc(O)c(O)c(O)c1	> 2.9 µM
CCCCOC(=O)c1cc(O)c(O)c(O)c1 [BUTYL GALLATE]	> 29 µM
CCOC(=O)c1cc(O)c(O)c(O)c1 [ETHYLGALLATE]	> 45 µM

stdin: # input molecule: O=C(NCCCCN(CCCNC(=O)c1ccc(O)c(O)c1O)C(=O)c1ccc(O)c(O)c1O)c1ccc(O)c(O)c1O ; wanted: its EC90
stdout: > 50 µM

stdin: Next up: O=C(OCCCCOC(=O)c1cc(O)c(O)c(O)c1)c1cc(O)c(O)c(O)c1
stdout: > 50 µM

stdin: Lookup O=C(NCCN(CCN(CCN(CCNC(=O)c1cc(O)c(O)c(O)c1)C(=O)c1cc(O)c(O)c(O)c1)C(=O)c1cc(O)c(O)c(O)c1)C(=O)c1cc(O)c(O)c(O)c1)c1cc(O)c(O)c(O)c1
stdout: > 50 µM

* * *

Test system: Human immunodeficiency virus 1
Test: Antiviral activity against HIV1 3B infected in human CEM cells assessed as reduction in virus-induced cytopathicity after 4 to 5 days by microscopy based syncytium cell formation assay
Type: functional, organism-based, CCRF-CEM
Details: Human immunodeficiency virus 1, 3B, CCRF-CEM; read-out: EC50
Value kind: EC50

Example entries begin here.
Compound	Tested on	Observed
O=C(NCCCCCCNC(=O)c1cc(O)c(O)c(O)c1)c1cc(O)c(O)c(O)c1	Human immunodeficiency virus 1	> 10 µM
O=C(OCCCCCCCCCCCCOC(=O)c1cc(O)c(O)c(O)c1)c1cc(O)c(O)c(O)c1	Human immunodeficiency virus 1	4.6 µM
O=C(NCCCCCCNC(=O)c1ccc(O)c(O)c1O)c1ccc(O)c(O)c1O	Human immunodeficiency virus 1	> 50 µM
O=C(NCCN(CCNC(=O)c1ccc(O)c(O)c1O)CCNC(=O)c1ccc(O)c(O)c1O)c1ccc(O)c(O)c1O	Human immunodeficiency virus 1	2.5 µM

stdin: What does the record list as EC50 for O=C(OCCCCOC(=O)c1cc(O)c(O)c(O)c1)c1cc(O)c(O)c(O)c1 ?
stdout: > 10 µM

stdin: Lookup O=C(O)c1cc(O)c(O)c(O)c1 [GALLIC ACID]
stdout: > 50 µM

stdin: Param item: O=C(OCCCCCCOC(=O)c1cc(O)c(O)c(O)c1)c1cc(O)c(O)c(O)c1
stdout: ≥ 10 µM

stdin: Try CCCCCOC(=O)c1cc(O)c(O)c(O)c1 [PENTYL GALLATE] next.
stdout: 14 µM

stdin: Same question, O=C(NCCCCCCCCCCCCNC(=O)c1ccccc1O)c1ccccc1O this time
stdout: > 250 µM

stdin: And what about the compound O=C(NCCNC(=O)c1ccccc1O)c1ccccc1O ?
stdout: > 10 µM

* * *

Test: Cytotoxicity against human CEM cells assessed as inhibition of cell proliferation
Format: cell-based
Conditions: CEM cells (CCRF-CEM)
Labelling field: enter Y if recorded CC50 is less than 20 µM. Enter N if it equals or exceeds that cut-off.

Compound	Assigned label
O=C(NCCN(CCNC(=O)c1cc(O)c(O)c(O)c1)CCNC(=O)c1cc(O)c(O)c(O)c1)c1cc(O)c(O)c(O)c1	N
O=C(NCCCCCCCCCCCCNC(=O)c1ccc(O)c(O)c1O)c1ccc(O)c(O)c1O	N
CCCCCCOC(=O)c1cc(O)c(O)c(O)c1 [HEXYL GALLATE]	Y
O=C(NCCN(CCNC(=O)c1ccc(O)c(O)c1O)CCNC(=O)c1ccc(O)c(O)c1O)c1ccc(O)c(O)c1O	N
O=C(NCCCCCCCCNC(=O)c1cc(O)c(O)c(O)c1)c1cc(O)c(O)c(O)c1	N

stdin: Record CN[C@@H]1[C@H](O[C@@H]2OC[C@@H](O)[C@H](O)[C@H]2O)[C@@H](O)[C@H](O[C@H]2c3cc(C)c(C(=O)N[C@H](C)C(=O)O)c(O)c3-c3c(cc4c(c3O)C(=O)c3cc(OC)cc(O)c3C4=O)[C@@H]2O)O[C@@H]1C : is its CC50 strictly below 20 µM?
stdout: N

stdin: O=C(NCCN(CCN(CCN(CCNC(=O)c1cc(O)c(O)c(O)c1)C(=O)c1cc(O)c(O)c(O)c1)C(=O)c1cc(O)c(O)c(O)c1)C(=O)c1cc(O)c(O)c(O)c1)c1cc(O)c(O)c(O)c1 ?
stdout: N

* * *

Test: Selectivity index, ratio of CC50 for human CEM cells to EC50 for HIV1 3B
Assay type: toxicity, cell-based, CCRF-CEM
Settings: read-out: Ratio CC50/EC50
Here the recorded selectivity ratio is given for each entry.
Lab note: record the figure alone, no unit after it.

Worked set:
Structure notation	selectivity ratio
O=C(NCCCCN(CCCNC(=O)c1cc(O)c(O)c(O)c1)C(=O)c1cc(O)c(O)c(O)c1)c1cc(O)c(O)c(O)c1	6
O=C(NCCN(CCNC(=O)c1ccc(O)c(O)c1O)CCNC(=O)c1ccc(O)c(O)c1O)c1ccc(O)c(O)c1O	10
O=C(NCCN(CCN(CCN(CCNC(=O)c1cc(O)c(O)c(O)c1)C(=O)c1cc(O)c(O)c(O)c1)C(=O)c1cc(O)c(O)c(O)c1)C(=O)c1cc(O)c(O)c(O)c1)c1cc(O)c(O)c(O)c1	4

stdin: Need selectivity ratio, item O=C(NCCCCN(CCCNC(=O)c1ccc(O)c(O)c1O)C(=O)c1ccc(O)c(O)c1O)c1ccc(O)c(O)c1O
stdout: 10

* * *

Known EC50 of a selection of compounds
System: Human immunodeficiency virus 1
Assay: Antiviral activity against HIV1 3B infected in human CEM cells assessed as reduction in virus-induced cytopathicity after 4 to 5 days by microscopy based syncytium cell formation assay
Type: functional, organism-based, CCRF-CEM
Conditions: Human immunodeficiency virus 1, 3B, CCRF-CEM; read-out: EC50

// solved cases for EC50 follow
Compound	Tested on	EC50
CCCCCCCCCCCCOC(=O)c1cc(O)c(O)c(O)c1 [DODECYL GALLATE]	Human immunodeficiency virus 1	≥ 1 µM
CCOC(=O)c1cc(O)c(O)c(O)c1 [ETHYLGALLATE]	Human immunodeficiency virus 1	> 10 µM
O=C(NCCCCCCCCCCCCNC(=O)c1ccc(O)c(O)c1O)c1ccc(O)c(O)c1O	Human immunodeficiency virus 1	> 10 µM
CCCCCCOC(=O)c1cc(O)c(O)c(O)c1 [HEXYL GALLATE]	Human immunodeficiency virus 1	5.4 µM
O=C(OCCCCCCCCOC(=O)c1cc(O)c(O)c(O)c1)c1cc(O)c(O)c(O)c1	Human immunodeficiency virus 1	> 10 µM
O=C(NCCN(CCNC(=O)c1cc(O)c(O)c(O)c1)C(=O)c1cc(O)c(O)c(O)c1)c1cc(O)c(O)c(O)c1	Human immunodeficiency virus 1	> 10 µM
O=C(NCCCCCCCCCCNC(=O)c1cc(O)c(O)c(O)c1)c1cc(O)c(O)c(O)c1	Human immunodeficiency virus 1	> 50 µM
O=C(NCCCCCCCCCCCCNC(=O)c1cc(O)c(O)c(O)c1)c1cc(O)c(O)c(O)c1	Human immunodeficiency virus 1	19 µM

// next entry
stdin: So what's the measured EC50 for this one? O=C(NCCCCCCCCCCNC(=O)c1ccc(O)c(O)c1O)c1ccc(O)c(O)c1O
stdout: > 50 µM
